target: SARS2 M^pro (Severe acute respiratory syndrome coronavirus 2, UniProt P0DTD1, P3395H); type: biochemical, SARS-CoV-2
RESULT TYPE: % inhibition (20 µM) biochemical (%)

> print(dat)
                                    compound  recorded.value
 1  O=C(Nc1ccc(Cl)cc1)N1CCc2ccccc21 [MWAC-0001717, Clc1ccc(NC(=O)N2CCc3ccccc23)cc1]               6
 2  O=C(Nc1ccc(-c2cscn2)cc1)C1CCCN(Cc2ccccc2)C1 (stereo not drawn) [MWAC-0001767]             3.2
 3  CCOC(=O)c1sc(NC(=O)c2sccc2C)cc1C [MWAC-0001852, CCOC(=O)c1sc(NC(=O)c2sccc2C)cc1C]              10
 4  CC1=C(C(=O)OC(C)C)C(c2ccsc2)C2=C(CC(c3cccs3)CC2=O)N1 (stereo not drawn) [MWAC-0001728]               0
 5  O=C(NNC(=O)C(c1ccccc1)c1ccccc1)Nc1cccc(Cl)c1 [MWAC-0001779]               3
 6  Cc1ccc(C(NC(=O)CCl)c2cccs2)cc1 (stereo not drawn) [MWAC-0001859, Cc1ccc(cc1)C(NC(=O)CCl)c2cccs2]              60
 7  COc1ccccc1-c1cc(C(F)(F)F)nc(S(=O)(=O)CCCC(=O)Nc2c(F)cc(F)cc2Br)n1 [MWAC-0001726]              43
 8  O=C(Nc1ccccc1O)c1ccc(Cl)c([N+](=O)[O-])c1 [MWAC-0001814]            2.59
 9  CCc1ccc(C2CC(c3ccc(OC)c(OC)c3)=NN2C(C)=O)cc1 (stereo not drawn) [MWAC-0001733]               7
10  O=C(Nc1cc([N+](=O)[O-])ccc1F)c1cccc(F)c1 [MWAC-0001808]            1.53
11  CCCCS(=O)(=O)N(O)c1ccc(Cl)cc1 [MWAC-0001856, CCCCS(=O)(=O)N(O)c1ccc(Cl)cc1]               4
12  O=C(CCl)Nc1cn(-c2ccccc2)nc1-c1ccc(F)cc1 [MWAC-0001848, Fc1ccc(cc1)c2nn(cc2NC(=O)CCl)c3ccccc3]              13

Hello, the source for this data is paper PMC11550483, in case you need it.
